study.system: Sentrin-specific protease 8 (Homo sapiens, UniProt Q96LD8);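 further: luminescence read-out of SENP8 inhibition, dose-response confirmation following an ultra-high-throughput screen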
Sequence (Q96LD8 whole entry): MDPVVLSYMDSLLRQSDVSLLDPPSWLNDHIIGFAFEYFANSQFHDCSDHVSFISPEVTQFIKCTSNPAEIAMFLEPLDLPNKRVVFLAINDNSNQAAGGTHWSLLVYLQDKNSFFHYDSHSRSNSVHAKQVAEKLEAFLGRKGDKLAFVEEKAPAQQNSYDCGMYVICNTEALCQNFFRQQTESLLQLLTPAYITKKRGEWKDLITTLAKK
Format: functional
The source made the active and inactive calls.
Could you please pick one outcome from this set? active, inactive

A selection of reference data follows.
- compound: "C=CCn1c2ccccc2c(=O)c2cc(C#Cc3ccccn3)ccc21"
  study.system: "Sentrin-specific protease 8 (Homo sapiens, UniProt Q96LD8)"
  assigned.label: "active"
- compound: "CSc1ccc(/C=C/C(=O)c2ccc(O)cc2)cc1"
  study.system: "Sentrin-specific protease 8 (Homo sapiens, UniProt Q96LD8)"
  assigned.label: "active"
- compound: "Cc1csc(NC(=O)c2ccc3ccccc3n2)n1"
  study.system: "Sentrin-specific protease 8 (Homo sapiens, UniProt Q96LD8)"
  assigned.label: "active"
- compound: "COc1ccccc1-n1c(=O)oc2ccc(Cl)cc2c1=O"
  study.system: "Sentrin-specific protease 8 (Homo sapiens, UniProt Q96LD8)"
  assigned.label: "active"
- compound: "O=C(Nc1ccc(-c2noc(-c3cccs3)n2)cc1)c1cccnc1"
  study.system: "Sentrin-specific protease 8 (Homo sapiens, UniProt Q96LD8)"
  assigned.label: "inactive"

q: # lookup: test call for COc1ccc(NC(=O)c2csc3c2CCCC3)cc1
a: inactive

q: # lookup: test call for CN1CC[C@@]2(C)c3cc(O)ccc3N(C)C2O1 (some centres undefined)
a: active

q: # lookup: test call for N#Cc1c(N2CCCCC2)nc(N)c2c(N)nc(SCC(=O)O)cc12
a: active

q: # lookup: test call for CCO/C=C1\C(=O)N(c2ccccc2)C(=O)c2ccccc21
a: active

###

Answer each item with its documented EC50.
study.system: Heat shock factor protein 1 (Mus musculus)
Sequence (P38532 whole entry): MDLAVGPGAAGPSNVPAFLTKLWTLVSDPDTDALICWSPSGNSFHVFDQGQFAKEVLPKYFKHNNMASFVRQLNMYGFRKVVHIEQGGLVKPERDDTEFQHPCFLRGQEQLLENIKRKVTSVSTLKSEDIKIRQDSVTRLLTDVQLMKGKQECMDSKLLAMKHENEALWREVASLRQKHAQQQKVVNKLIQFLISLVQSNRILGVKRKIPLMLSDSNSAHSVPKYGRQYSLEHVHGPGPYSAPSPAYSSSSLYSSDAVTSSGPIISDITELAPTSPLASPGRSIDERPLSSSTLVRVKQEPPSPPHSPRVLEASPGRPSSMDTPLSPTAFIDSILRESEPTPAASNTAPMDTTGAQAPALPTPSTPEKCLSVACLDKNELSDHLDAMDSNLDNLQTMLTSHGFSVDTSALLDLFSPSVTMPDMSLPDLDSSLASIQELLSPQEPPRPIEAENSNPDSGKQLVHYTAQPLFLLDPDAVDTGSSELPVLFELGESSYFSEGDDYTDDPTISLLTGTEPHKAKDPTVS
test.name: inhibition of MG132-induced HSE-luciferase signal, confirmation, cell-based, NIH3T3, luminescence, dose retest (AID 2382);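 further: NIH3T3 fibroblasts with HSF1-driven luciferase reporter stressed by proteasome inhibitor MG132; luminescence from HSF1-driven luciferase expression after 8 hours of MG132 stress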
Type: functional
Calls of active or inactive are those of the source.

Reference set (2 entries):
- compound: "CCCC(=O)NC(c1ccc(C(C)C)cc1)c1ccc2cccnc2c1O (stereo not drawn)"
  study.system: "Heat shock factor protein 1 (Mus musculus)"
  EC50: "1.63 µM (active)"
- compound: "Cc1ccc(S(=O)(=O)n2ccc(=O)[nH]2)cc1"
  study.system: "Heat shock factor protein 1 (Mus musculus)"
  EC50: "> 195 µM (not active)"

q: Name the reported EC50 value associated with the compound COc1ccccc1NC(=O)[C@H](COCc1ccccc1)NC(=O)OC(C)(C)C
a: > 195 µM (not active)

###

Answer each item with its documented IC50.
study.system: Aminopeptidase N (Plasmodium falciparum FcB1/Columbia, UniProt O96935)
Sequence (O96935 whole entry): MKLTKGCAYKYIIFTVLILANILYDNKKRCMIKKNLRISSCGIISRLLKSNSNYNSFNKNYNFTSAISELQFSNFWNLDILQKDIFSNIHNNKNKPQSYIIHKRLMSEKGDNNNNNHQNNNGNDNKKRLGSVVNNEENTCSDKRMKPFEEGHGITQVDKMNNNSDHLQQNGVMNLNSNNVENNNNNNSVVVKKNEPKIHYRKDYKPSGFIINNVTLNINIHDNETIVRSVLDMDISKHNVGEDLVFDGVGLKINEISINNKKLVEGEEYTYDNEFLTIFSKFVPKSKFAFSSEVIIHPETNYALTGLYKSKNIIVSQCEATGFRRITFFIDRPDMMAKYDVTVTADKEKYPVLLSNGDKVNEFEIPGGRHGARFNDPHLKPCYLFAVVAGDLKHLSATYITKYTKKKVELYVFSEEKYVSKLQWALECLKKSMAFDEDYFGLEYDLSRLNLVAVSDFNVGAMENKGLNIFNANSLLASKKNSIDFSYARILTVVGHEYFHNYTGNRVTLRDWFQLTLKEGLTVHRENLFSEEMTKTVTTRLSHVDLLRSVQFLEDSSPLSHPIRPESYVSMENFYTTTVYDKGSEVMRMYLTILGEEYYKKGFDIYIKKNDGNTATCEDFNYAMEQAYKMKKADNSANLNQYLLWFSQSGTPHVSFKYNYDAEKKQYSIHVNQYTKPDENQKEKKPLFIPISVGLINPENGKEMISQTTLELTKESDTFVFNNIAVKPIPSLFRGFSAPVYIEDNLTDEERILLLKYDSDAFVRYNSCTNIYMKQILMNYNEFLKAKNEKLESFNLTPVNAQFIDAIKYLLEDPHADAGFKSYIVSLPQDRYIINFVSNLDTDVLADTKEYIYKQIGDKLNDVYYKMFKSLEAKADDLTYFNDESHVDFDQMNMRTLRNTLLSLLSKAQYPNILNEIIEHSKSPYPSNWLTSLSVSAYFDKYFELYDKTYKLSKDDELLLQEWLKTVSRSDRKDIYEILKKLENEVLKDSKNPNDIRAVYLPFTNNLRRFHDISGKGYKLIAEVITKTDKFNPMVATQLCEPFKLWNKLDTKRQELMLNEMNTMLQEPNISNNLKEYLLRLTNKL
test.name: P. falciparum M1AAP inhibitors, biochemical, fluorogenic H-Leu-NHMec substrate, 1536-well (AID 1445)
Design: species or system Plasmodium falciparum 3D7, 3D7
Activity calls are given as the source filed them.

Reference set (5 entries):
- chemical.string: "Cc1nn2c(N3CCN(C)CC3)c3c(nc2c1-c1ccccc1)CCCC3"
  study.system: "Aminopeptidase N (Plasmodium falciparum FcB1/Columbia, UniProt O96935)"
  experimental.endpoint: "IC50"
  recorded.value: "61.7 µM (active)"
- chemical.string: "O=C(NCc1ccc2c(c1)OCO2)C1CCN(S(=O)(=O)c2ccc(Br)s2)CC1"
  study.system: "Aminopeptidase N (Plasmodium falciparum FcB1/Columbia, UniProt O96935)"
  experimental.endpoint: "IC50"
  recorded.value: "2.11 µM (active)"
- chemical.string: "Oc1c(Cl)cc(Cl)c(Cl)c1Cc1c(O)c(Cl)cc(Cl)c1Cl"
  study.system: "Aminopeptidase N (Plasmodium falciparum FcB1/Columbia, UniProt O96935)"
  experimental.endpoint: "IC50"
  recorded.value: "58 µM (active)"
- chemical.string: "CCOC(=O)COc1ccc(Br)cc1/C=C\\c1nc(O)nc(O)c1[N+](=O)[O-]"
  study.system: "Aminopeptidase N (Plasmodium falciparum FcB1/Columbia, UniProt O96935)"
  experimental.endpoint: "IC50"
  recorded.value: "36.5 µM (active)"
- chemical.string: "Cc1ccc(S(=O)(=O)NN2C(=O)/C(=C/c3cccs3)SC2=S)cc1"
  study.system: "Aminopeptidase N (Plasmodium falciparum FcB1/Columbia, UniProt O96935)"
  experimental.endpoint: "IC50"
  recorded.value: "30.9 µM (active)"

For every record below, what is its IC50?
1. O=C(O)c1ccc(-c2ccc(/C=C3\NC(=O)N(Cc4ccc(Cl)cc4)C3=O)o2)cc1Cl
2. Cc1nc(NC(=N)N)nc2c(C)cccc12
3. O=C(Nn1c(-c2ccccc2)nc2ccccc2c1=O)c1cccs1
4. COc1ccc2cc(C#N)c(SCC(=O)N3CCCC3)nc2c1

a:
1: 40.8 µM (active); 2: 47.6 µM (active); 3: 51.1 µM (active); 4: 55.7 µM (active)

###

test.name: Luminescence Cell-Based Dose Confirmation HTS to Identify Inhibitors of Platelet Dense Granule Release. [Related pubchem assays: 1663 (Primary HTS), 1678 (Summary of Project)]
Format: functional
Activity calls are given as the source filed them.
experimental.endpoint: EC50

- compound: "CCOc1ccc(N2C(=O)CC(Sc3nc4ccc(OCC)cc4s3)C2=O)cc1 (centres undefined)"
  EC50: "> 112 µM (not active)"

For every record below, what is its EC50?
1. COc1cc(/C=N/NC(=O)/C(=C/c2ccccc2)CCO)ccc1O
2. O=C(Cn1nc(C(=O)O)c2ccccc2c1=O)NCC1CCCO1 (centres undefined)
3. Nc1ncnc2c1ncn2[C@@H]1O[C@H](COP(=O)(O)O)[C@@H](O)[C@H]1O
4. Cc1ccc(Oc2nc3ccccn3c(=O)c2/C=C(\C#N)C(=O)NC2CCS(=O)(=O)C2)cc1 (centres undefined)
5. COc1ccccc1CC(=O)NNC(=O)CN(C)S(=O)(=O)c1ccc(Cl)cc1
6. CC(C)Oc1ccc(CNC(=O)c2ccc3c(c2)N(C)CCS3)cc1
7. Cc1ccccc1C(=O)O/N=C(\N)c1ccccc1
8. Cc1c(NC(=O)CCN2C(=O)c3ccccc3C2=O)c(=O)n(-c2ccccc2)n1C

a:
1: 11.1 µM (active); 2: > 112 µM (not active); 3: 1.13 µM (active); 4: 8.55 µM (active); 5: > 112 µM (not active); 6: > 112 µM (not active); 7: 2.72 µM (active); 8: > 112 µM (not active)

###

System: Vero
test.name: cells
Format: functional
run.conditions: Chlorocebus sabaeus
Calls of active or inactive are those of the source.
Answer each item with its documented CC50.

Reference set (4 entries):
- chemical.string: "CCn1c(=O)c2nc(Cl)[nH]c2n(CC)c1=O"
  experimental.endpoint: "CC50"
  recorded.value: "> 25 µM (active)"
- chemical.string: "CC(C)(C)c1ccc(C(=O)NC(=S)NNC(=O)c2cccs2)cc1"
  experimental.endpoint: "CC50"
  recorded.value: "17.4 µM (active)"
- chemical.string: "Cc1cccc2sc(NNC(=O)c3cc(-c4cccs4)nc4ccccc34)nc12"
  experimental.endpoint: "CC50"
  recorded.value: "11.5 µM (active)"
- chemical.string: "Cc1cc(C)n(-c2nc3ccccc3c(=O)n2OCC#N)n1"
  experimental.endpoint: "CC50"
  recorded.value: "8.68 µM (active)"

Here is another molecule to look at.
q: Name the reported CC50 value associated with the molecule O=C(Nc1nnc(-c2ccc3c(c2)CCCC3)o1)c1ccccc1
a: > 25 µM (active)

###

study.system: Peroxisome proliferator-activated receptor gamma/Nuclear receptor corepressor 2 (Homo sapiens, UniProt P37231+Q9Y618)
Sequence (P37231 whole entry): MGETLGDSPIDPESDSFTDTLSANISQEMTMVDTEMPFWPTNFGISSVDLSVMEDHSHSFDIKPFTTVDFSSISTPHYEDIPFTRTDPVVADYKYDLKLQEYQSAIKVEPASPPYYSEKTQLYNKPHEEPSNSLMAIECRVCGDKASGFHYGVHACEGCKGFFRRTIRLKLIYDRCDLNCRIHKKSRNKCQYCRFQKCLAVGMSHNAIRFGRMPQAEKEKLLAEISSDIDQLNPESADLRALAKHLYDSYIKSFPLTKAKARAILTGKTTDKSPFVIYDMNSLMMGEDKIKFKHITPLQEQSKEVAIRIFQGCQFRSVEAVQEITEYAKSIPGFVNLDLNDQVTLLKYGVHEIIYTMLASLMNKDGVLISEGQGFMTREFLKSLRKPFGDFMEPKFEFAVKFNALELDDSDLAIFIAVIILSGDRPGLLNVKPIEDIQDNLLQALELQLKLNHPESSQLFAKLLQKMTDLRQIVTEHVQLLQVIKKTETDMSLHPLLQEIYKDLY
Sequence (Q9Y618 whole entry): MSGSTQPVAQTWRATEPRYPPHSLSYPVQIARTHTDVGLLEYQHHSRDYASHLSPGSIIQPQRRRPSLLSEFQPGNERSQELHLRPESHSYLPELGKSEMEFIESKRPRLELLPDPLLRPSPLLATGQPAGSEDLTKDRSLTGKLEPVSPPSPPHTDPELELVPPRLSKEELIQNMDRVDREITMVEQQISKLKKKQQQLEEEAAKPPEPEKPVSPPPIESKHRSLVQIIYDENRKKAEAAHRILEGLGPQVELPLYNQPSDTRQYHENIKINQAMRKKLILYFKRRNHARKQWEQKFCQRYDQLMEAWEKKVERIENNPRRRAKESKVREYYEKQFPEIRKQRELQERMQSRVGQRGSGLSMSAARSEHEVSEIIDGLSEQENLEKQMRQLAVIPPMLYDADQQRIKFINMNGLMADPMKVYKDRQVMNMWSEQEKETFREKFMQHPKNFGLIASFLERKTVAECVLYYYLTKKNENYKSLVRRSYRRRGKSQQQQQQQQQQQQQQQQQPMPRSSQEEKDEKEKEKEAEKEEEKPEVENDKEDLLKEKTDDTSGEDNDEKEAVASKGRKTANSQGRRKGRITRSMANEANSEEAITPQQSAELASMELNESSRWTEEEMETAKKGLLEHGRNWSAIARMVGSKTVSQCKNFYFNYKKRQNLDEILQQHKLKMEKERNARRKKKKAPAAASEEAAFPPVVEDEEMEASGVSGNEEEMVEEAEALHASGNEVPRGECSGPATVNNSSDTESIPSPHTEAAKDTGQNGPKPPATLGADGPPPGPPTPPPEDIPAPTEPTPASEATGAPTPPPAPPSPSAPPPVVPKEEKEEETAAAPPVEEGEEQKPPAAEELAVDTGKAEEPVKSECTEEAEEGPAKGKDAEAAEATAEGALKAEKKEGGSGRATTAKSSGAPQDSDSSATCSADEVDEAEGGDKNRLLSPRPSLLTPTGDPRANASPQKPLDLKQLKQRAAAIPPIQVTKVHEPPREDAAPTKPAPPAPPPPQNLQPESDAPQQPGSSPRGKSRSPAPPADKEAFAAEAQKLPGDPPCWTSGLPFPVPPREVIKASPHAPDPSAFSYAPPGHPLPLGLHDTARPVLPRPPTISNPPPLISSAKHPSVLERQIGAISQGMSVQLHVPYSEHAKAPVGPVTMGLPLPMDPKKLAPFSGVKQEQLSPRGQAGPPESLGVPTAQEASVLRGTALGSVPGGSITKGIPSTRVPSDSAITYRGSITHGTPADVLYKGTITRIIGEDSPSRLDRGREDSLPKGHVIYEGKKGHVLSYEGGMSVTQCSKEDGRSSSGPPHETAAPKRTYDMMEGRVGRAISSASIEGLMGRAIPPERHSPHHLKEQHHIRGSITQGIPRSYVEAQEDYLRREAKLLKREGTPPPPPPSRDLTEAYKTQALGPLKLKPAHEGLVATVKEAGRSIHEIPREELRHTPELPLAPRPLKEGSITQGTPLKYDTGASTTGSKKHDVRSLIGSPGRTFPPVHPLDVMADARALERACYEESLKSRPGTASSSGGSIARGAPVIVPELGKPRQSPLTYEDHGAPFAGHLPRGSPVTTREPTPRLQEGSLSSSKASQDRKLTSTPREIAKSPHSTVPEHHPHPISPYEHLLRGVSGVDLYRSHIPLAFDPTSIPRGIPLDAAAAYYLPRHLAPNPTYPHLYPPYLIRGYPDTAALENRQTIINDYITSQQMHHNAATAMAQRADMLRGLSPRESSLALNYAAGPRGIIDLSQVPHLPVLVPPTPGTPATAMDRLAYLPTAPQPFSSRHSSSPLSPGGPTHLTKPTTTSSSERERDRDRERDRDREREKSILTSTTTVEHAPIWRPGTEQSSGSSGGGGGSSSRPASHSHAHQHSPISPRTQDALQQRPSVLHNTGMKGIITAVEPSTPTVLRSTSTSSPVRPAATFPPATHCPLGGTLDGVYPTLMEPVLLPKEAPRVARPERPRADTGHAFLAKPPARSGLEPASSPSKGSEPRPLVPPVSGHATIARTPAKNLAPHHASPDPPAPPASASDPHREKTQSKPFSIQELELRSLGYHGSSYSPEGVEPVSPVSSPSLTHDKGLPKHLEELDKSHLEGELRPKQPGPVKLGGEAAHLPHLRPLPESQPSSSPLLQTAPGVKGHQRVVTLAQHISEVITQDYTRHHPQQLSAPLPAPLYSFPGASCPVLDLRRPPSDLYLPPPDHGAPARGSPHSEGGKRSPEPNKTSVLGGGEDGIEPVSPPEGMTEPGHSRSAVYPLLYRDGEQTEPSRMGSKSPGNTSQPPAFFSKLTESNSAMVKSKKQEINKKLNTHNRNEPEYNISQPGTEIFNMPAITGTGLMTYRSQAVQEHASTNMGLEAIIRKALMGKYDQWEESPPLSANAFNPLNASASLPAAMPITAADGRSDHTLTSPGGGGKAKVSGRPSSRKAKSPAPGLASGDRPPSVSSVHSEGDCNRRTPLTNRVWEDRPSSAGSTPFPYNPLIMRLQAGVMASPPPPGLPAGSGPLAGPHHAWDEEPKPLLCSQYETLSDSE
test.name: Counterscreen for NR2E3 inverse agonists: TR-FRET-based biochemical high throughput dose response assay to identify inverse agonists of the interaction between peroxisome proliferator-activated receptor gamma (PPARg) and nuclear receptor co-repressor 2 (NCOR2).
Assay type: functional
The source made the active and inactive calls.
experimental.endpoint: IC50

- chemical.string: "N#Cc1ccc(CSc2nnc(NC(=O)c3ccc4ncsc4c3)s2)cc1"
  IC50: "3.79 µM (active)"
- chemical.string: "O=C(COc1ccc(Br)cc1)N1CCN(c2ncccn2)CC1"
  IC50: "8.99 µM (active)"
- chemical.string: "COc1ccc(-n2nc3c(N4CCC(C(=O)NCc5ccccc5C)CC4)nnc(C)c3c2C)cc1"
  IC50: "1.44 µM (active)"
- chemical.string: "Cc1c(Br)ccc(NC(=O)Cn2nc(-c3cccs3)ccc2=O)c1C"
  IC50: "7.73 µM (active)"

Here is another molecule to look at.
q: Name the reported IC50 value associated with the molecule COc1cc(NC(=O)CSc2nc(C3CC3)nc3ccccc23)cc(OC)c1
a: 5.56 µM (active)

###

study.system: Short transient receptor potential channel 4 (Mus musculus, UniProt Q9QUQ5)
Sequence (Q9QUQ5 whole entry): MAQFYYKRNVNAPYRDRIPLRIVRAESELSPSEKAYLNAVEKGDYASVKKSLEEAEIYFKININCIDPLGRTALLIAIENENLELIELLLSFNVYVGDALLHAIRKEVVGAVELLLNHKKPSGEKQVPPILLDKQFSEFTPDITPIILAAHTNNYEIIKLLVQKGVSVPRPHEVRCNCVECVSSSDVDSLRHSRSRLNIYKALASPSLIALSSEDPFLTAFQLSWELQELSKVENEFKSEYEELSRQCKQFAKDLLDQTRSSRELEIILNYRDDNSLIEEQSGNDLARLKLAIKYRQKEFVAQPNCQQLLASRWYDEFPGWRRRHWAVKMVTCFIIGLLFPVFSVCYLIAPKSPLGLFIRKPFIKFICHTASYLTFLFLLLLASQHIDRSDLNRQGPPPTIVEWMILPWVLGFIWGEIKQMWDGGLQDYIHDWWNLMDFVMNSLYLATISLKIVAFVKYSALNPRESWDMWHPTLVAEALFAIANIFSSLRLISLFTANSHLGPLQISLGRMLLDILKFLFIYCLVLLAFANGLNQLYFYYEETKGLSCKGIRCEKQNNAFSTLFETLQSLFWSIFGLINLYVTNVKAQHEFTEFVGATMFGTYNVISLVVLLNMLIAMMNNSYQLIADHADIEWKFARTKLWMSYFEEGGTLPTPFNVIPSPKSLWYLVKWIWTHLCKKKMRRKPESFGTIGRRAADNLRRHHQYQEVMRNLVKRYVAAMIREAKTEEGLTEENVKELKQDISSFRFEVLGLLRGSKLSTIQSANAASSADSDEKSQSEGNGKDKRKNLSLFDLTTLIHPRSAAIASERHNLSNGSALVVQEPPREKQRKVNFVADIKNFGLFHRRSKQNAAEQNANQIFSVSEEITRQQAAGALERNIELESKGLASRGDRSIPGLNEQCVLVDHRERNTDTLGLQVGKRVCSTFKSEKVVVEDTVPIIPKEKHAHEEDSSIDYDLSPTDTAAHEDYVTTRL
test.name: mouse TRPC4 channel inhibitors, dose response, cell-based, HEK293 TRPC4/mu-opioid, Fluo-4 calcium (AID 434942);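 further: potency of inhibitors blocking the TRPC4 calcium response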
Format: functional
The source made the active and inactive calls.
experimental.endpoint: EC50

- compound: "COc1ccc(OC)c(Nc2cc(C)nc3ccc(C)cc23)c1"
  EC50: "5.96 µM (active)"
- compound: "Cc1cc(NCc2ccccc2)nc(N2CCOCC2)n1"
  EC50: "4.73 µM (active)"
- compound: "CCOC(=O)C(C)Sc1nc2c(c(=O)[nH]c(=O)n2C)n1Cc1ccc(Cl)cc1 (stereo unspecified)"
  EC50: "0.749 µM (active)"
- compound: "COc1ccc2nc(NS(=O)(=O)c3ccc(NC(C)=O)cc3)sc2c1"
  EC50: "3.35 µM (active)"
- compound: "CCCc1cc(O)nc(SCC(=O)Nc2sc3c(c2C#N)CCCC3)n1"
  EC50: "4.73 µM (active)"

Here is another compound to look at.
q: Name the reported EC50 value associated with the compound COCC(C)NC(C(=O)Nc1ccc(Cl)c([N+](=O)[O-])c1)c1ccccc1 (stereo unspecified)
a: 5.96 µM (active)
